System: LOX IMVI
Assay: NCI tumour cell line growth inhibition, 48 h
Active and inactive are the calls of the source. No stated cut-off is given here; in the data, active = GI50 up to about 1.1 µM and inactive = higher. Peptide text beside a SMILES is read from it. * marks the point of attachment. Boc = CC(C)(C)OC(=O)*
Use one of these outcomes when replying: active, inactive

Assay result, entry Cc1ccc(NC2=NCCO2)c2c1CCC2 — outcome?
inactive

Repeat with NC1=C2C(Br)=CN([C@@H]3O[C@H](CO)[C@@H](O)[C@@H]3O)C2C(=O)N=N1 (stereo partly specified)
active

Repeat with O=C1OC(c2ccccc2)=N/C1=C\c1ccc(Cl)cc1
inactive

Repeat with CC1=C/C(=N\N(C)C)C(C(O)(C(F)(F)F)C(F)(F)F)C(C)(C)C1 (stereo unspecified)
inactive

Repeat with CCCc1cn2c(/C=N/NC(=N)N)c(-c3cc([N+](=O)[O-])c(Cl)cc3Cl)nc2s1
inactive

Repeat with COc1ccc(C2=NN(C(=O)COc3ccc(Cl)cc3)C(O)(c3ccc(Cl)cc3)C2)cc1 (stereo unspecified)
inactive

Repeat with CSCCC(NC(=O)C(CC(C)C)NC(=O)CNC(=O)OC(C)(C)C)C(=O)N(C)C (stereo not drawn) (Boc-Gly-Leu-Met-NMe2; configuration not given here)
inactive

---

For each of the compounds below, state its GI50.
Test system: Hs-578T
Test: NCI tumour cell line growth inhibition, 48 h
The source made the active and inactive calls. Rule as the data show it: active = GI50 up to about 1.1 µM and inactive = higher.

Solved entries (count: 3):
compound	GI50
O=C(Nc1nncs1)NS(=O)(=O)n1c(=S)sc2ccccc21	> 100 µM (inactive)
CC(C)=CCc1cc(/C=C/C(=O)O)cc(CC=C(C)C)c1O [ARTEPILLIN]	> 100 µM (inactive)
CN(C)CC1CN(C(=O)Nc2ccccc2)C(=N)O1 (stereo unspecified)	> 100 µM (inactive)

// each compound listed below needs its GI50
1. CCSc1nc(N)c2c(-c3ccc(OC)c(OC)c3)c3c(nc2n1)CCCC3
2. CCC1(COC(NC(=O)c2ccccc2)(C(F)(F)F)C(F)(F)F)COC1
3. C=C1CC(Cn2ccc(=O)[nH]c2=O)(c2ccc(Cl)cc2)OC1=O (stereo unspecified)
4. COc1ccc(CNC(=O)[C@H](Cc2ccc(O)cn2)NC(C)=O)cc1OC

1. > 100 µM (inactive)
2. > 100 µM (inactive)
3. 10.5 µM (inactive)
4. > 74.5 µM (inactive)

// each compound listed below needs its GI50
1. COc1cccc(-c2cc(O)c3cc(C)cnc3n2)c1
2. COc1cccc(C2CC(=O)c3cc(N4CCCC4)ccc3N2)c1 (stereo unspecified)
3. Cc1ccnc2nc(-c3cccc4ccccc34)cc(O)c12

1: 0.0495 µM (active); 2: 0.01 µM (active); 3: 0.0141 µM (active)

For C#CCOCn1ccc(=O)[nH]c1=O , what is its reported GI50?
> 100 µM (inactive)

---

For each of the compounds below, state its GI50.
Test system: KM-20L2
Experiment: NCI tumour cell line growth inhibition, 48 h
Calls of active or inactive are those of the source. No stated cut-off is given here; in the data, active = GI50 up to about 1.1 µM and inactive = higher.

Solved entries (count: 5):
compound	GI50
Cc1nn2c(=O)n(-c3cccc(-n4nnc5c(-c6ccccc6)c(C)nn5c4=O)c3C)nnc2c1-c1ccccc1	19.5 µM (inactive)
COc1cc(/C=C2\NC(=O)C(Cc3cc(OC)c(OC)c(C)c3OC)N(C(C)=O)C2=O)c(OC)c(C)c1OC (centres undefined)	> 100 µM (inactive)
CC(C)(C)C(=O)CC(=O)C(C)(C)C.CC(C)(C)C(=O)CC(=O)C(C)(C)C.[SiH4]	1.62 µM (inactive)
CC(=O)NCCCCCCNC(C)=O [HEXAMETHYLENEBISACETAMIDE]	5220 µM (inactive)
CC(C)(C)C1=CC(=N/N=c2\scc(-c3ccccc3)n2-c2ccccc2)C=C(C(C)(C)C)C1=O	> 100 µM (inactive)

// each compound listed below needs its GI50
1. CC1(C)CC2CC(CC(C)(C)C2=O)C1=O
2. O=C(OCc1ccccc1)N1N=NC2C1C1CC(OCc3ccccc3)(OCc3ccccc3)C2O1 (centres undefined)
3. COC1(OC)C2(Cl)C(Cl)=C(Cl)C1(Cl)C1C2C2CC1(C(=O)O)c1ccccc12 (centres undefined)
4. Cc1nc2c(n1C(C)(C)C)C(=O)c1ccccc1C2=O
5. C=C1c2[nH]c3c([N+](=O)[O-])c(OC)ccc3c2CCN1C(C)=O

["> 100 µM (inactive)", "> 100 µM (inactive)", "24.2 µM (inactive)", "51.5 µM (inactive)", "> 100 µM (inactive)"]

// each compound listed below needs its GI50
1. COc1ccc2c(c1OC)C1=C(C2=O)c2cc3c(cc2CCN1)OCO3
2. O=C1C(c2cnc3ccccc3n2)=C(O)c2ccccc21
3. CC(C)(C)C1CCC2c3c([nH]c4ccccc34)C3C(=O)N(c4ccc(Br)cc4)C(=O)C3C2C1 (centres undefined)
4. N#C/C(=C\c1cccc(O)c1O)C(N)=O

17.9 µM (inactive)
> 100 µM (inactive)
15.1 µM (inactive)
52.5 µM (inactive)

// each compound listed below needs its GI50
1. O=C1Cc2c([nH]c3ccccc23)-c2ccccc2N1
2. Cc1cc2c(=O)cc(-c3cccs3)oc2c(C(=O)O)c1C
3. Nc1ccc(C(=O)NN2C(=O)C(Cl)C2c2ccccc2Cl)cc1 (centres undefined)
4. COc1ccc([C@H]2CC(=O)N3CCCC3N2)cc1 (some centres undefined)
5. O=C1N(c2ccccc2)C(=O)C2(SC=NN2Cc2ccccc2)N1c1ccccc1 (centres undefined)

1: 21.4 µM (inactive); 2: > 100 µM (inactive); 3: 15.8 µM (inactive); 4: > 100 µM (inactive); 5: > 100 µM (inactive)

---

System: M14
Assay: NCI tumour cell line growth inhibition, 48 h
Active and inactive are the calls of the source. Rule as the data show it: active = GI50 up to about 1.1 µM and inactive = higher.
Use one of these outcomes when replying: active, inactive

compound	assigned_label
N#C/C(=C\c1cccc(O)c1O)C(N)=O	inactive
O=C(NO)c1ccc(OCc2ccccc2)cc1	inactive
COCCNC1CCC(=O)c2[nH]c3ccccc3c21 (stereo not given)	inactive

Assay result, entry N#Cc1c(N2CCN(c3ccc([N+](=O)[O-])cc3)CC2)[n+]([O-])c2ccc(Cl)cc2[n+]1[O-] — outcome?
inactive

Repeat with CCN(CC)CCNC(=O)c1cc2cc(NC(=O)c3cc4cc(N)ccc4[nH]3)ccc2[nH]1
inactive

Repeat with CC(C)(C)c1ccc2c(c1)C#Cc1cc3c(cc1OCCCO2)C#Cc1cc(C(C)(C)C)ccc1OCCCO3
inactive

Repeat with Cc1nnc2sc(NN)nn12
inactive

Repeat with O=C(O)CCSC(=O)Nc1cccc2ccccc12
inactive

---

Test system: HCT-116
Experiment: NCI tumour cell line growth inhibition, 48 h
Calls of active or inactive are those of the source. No stated cut-off is given here; in the data, active = GI50 up to about 1.1 µM and inactive = higher.
For each of the compounds below, state its GI50.

Solved entries (count: 5):
compound	measured
CSc1nc2c(ncn2C2OCC(O)C(O)C2O)c(=O)n1C (stereo not drawn)	> 100 µM (inactive)
COc1ccc(C2SC(=N)Nc3c2c(C)nn3C(=O)c2ccc(Cl)cc2)cc1 (stereo not drawn)	> 10 µM (inactive)
Cc1ccccc1NC(=O)O/N=C(\Cl)C(C)C	2.18 µM (inactive)
COC(=O)C1=C(C)NC2(O)C=CC(=O)C3C(=O)N(c4ccccc4)C(=O)C132 (stereo not drawn)	73.6 µM (inactive)
O=C(NCCCCl)c1c(O)c2ccccc2[nH]c1=O	> 100 µM (inactive)

// each compound listed below needs its GI50
1. C/C(=C/c1ccccc1)CN(C(=O)/C=C\Sc1ccccc1)C(C)(C)C
2. Cc1ccc(NC(=O)C2C(=O)N(c3ccc(C)c(C)c3)C(=O)/C2=N/O)cc1C (stereo not drawn)
3. Cc1ccc(S(=O)(=O)c2c3nc4ccccc4nc3n3c2[nH]c2ccccc23)cc1
4. COC(=O)C(NC(=O)CSc1nnc(COc2ccc(Cl)cc2)n1-c1ccccc1)C(C)C (stereo not drawn)
5. Clc1nc(Nc2nc3ccccc3[nH]2)nc(Cl)c1Cc1ccccc1
6. COc1cc(OCc2ccc3nc(-c4ccccc4)c(Cl)nc3c2)cc(OC)c1OC
7. COC(=O)C1=C(O)C(C(=O)OC)[C@]2(O)[C@@H](C(=O)OC)[C@H]1C[C@@H](c1ccccc1)[C@@H]2C(=O)OC (stereo partly drawn)

1. 24.8 µM (inactive)
2. > 100 µM (inactive)
3. > 100 µM (inactive)
4. 13 µM (inactive)
5. > 100 µM (inactive)
6. 76.6 µM (inactive)
7. 6.98 µM (inactive)

---

System: HT-29
Experiment: NCI tumour cell line growth inhibition, 48 h
Active and inactive are the calls of the source. No stated cut-off is given here; in the data, active = GI50 up to about 1.1 µM and inactive = higher.
For each of the molecules below, state its GI50.

// each molecule listed below needs its GI50
1. COc1cc(/C=C/C2=C(C#N)C(=O)OC2(C)C)ccc1O
2. COc1cc(/C=N/Nc2nnc3c4ccccc4c4ncccc4c3n2)cc(OC)c1OC
3. C=C/C(C)=C/[C@H](C)C(=O)C[C@H](O)CC1CC(=O)NC(=O)C1
4. CC(C)=CCc1cc(/C=C/C(=O)O)cc(CC=C(C)C)c1O [ARTEPILLIN]
5. CCOC(=O)CCC(C(=O)OCC)n1nnc2ccc(Nc3c(C)[n+]([O-])c4cc(Cl)ccc4[n+]3[O-])cc21 (centres undefined)

1: 48.2 µM (inactive); 2: 2.02 µM (inactive); 3: 34 µM (inactive); 4: 47.3 µM (inactive); 5: 27.2 µM (inactive)

// each molecule listed below needs its GI50
1. Cc1nc2ccc(Br)cc2c(=O)n1-c1nnc(C(C)(C)C)s1
2. CCCCCCCc1ccc(-c2nnc(/N=N/c3ccc(OCCCCC)cc3)s2)s1
3. COc1cccc(CCCNC(=O)Cc2ccccc2CO)c1
4. COc1ccc2nc3cc(Cl)ccc3c(NCCC[N+](C)(C)CCCCCCCCCCCCCCCC[N+](C)(C)CCCNc3c4ccc(Cl)cc4nc4ccc(OC)cc34)c2c1

["> 10 µM (inactive)", "> 100 µM (inactive)", "> 100 µM (inactive)", "1.61 µM (inactive)"]

Source listed as ChEMBL document CHEMBL1201862.
